# testName: BSK_CASM3C_Proliferation: Cell Proliferation Assessment in the BioMAP Diversity Plus: CASM3C Assay (AID 2283047);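 further: sulforhodamine B total protein stain as relative cell number at 560 nm; sub-confluent cells exposed 48 h before staining; fitted both ways against DMSO so gain or loss of cell number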
# details: primary human coronary artery smooth muscle cells
Activity calls are given as the source filed them. How the source made its calls: active means hit-call score of the fitted dose curve at least 0.9, where 1 is the maximum; inactive means score below 0.9.
Outcomes: active, inactive

> print(dat)
                                    compound  grouplabel
 1                       c1ccc(-c2ccccc2)cc1    inactive
 2       O=C(N[C@H]1CN2CCC1CC2)c1cc2ccoc2cn1    inactive
 3                     Cc1ccccc1[N+](=O)[O-]    inactive
 4                            Clc1ccc(Cl)cc1    inactive
 5  Cc1cc2c3c(c1)C(c1ccccc1)=N[C@@H](NC(=O)c1ccncc1)C(=O)N3CC2    inactive
 6          CCCCCCOC(=O)c1ccccc1C(=O)OCCCCCC    inactive
 7  CCC(C)c1cc([N+](=O)[O-])cc([N+](=O)[O-])c1O (stereo not given)      active
 8  O=S(=O)(O)C(F)(F)C(F)(F)C(F)(F)C(F)(F)C(F)(F)C(F)(F)F    inactive
 9    CCOC(=O)C(O)(c1ccc(Cl)cc1)c1ccc(Cl)cc1      active
10   CCC(C)(CC)c1cc(NC(=O)c2c(OC)cccc2OC)on1    inactive

----------
# measuredTarget: Peroxisome proliferator-activated receptor gamma (Homo sapiens) (UniProt P37231)
# Sequence (P37231 whole entry, looked up): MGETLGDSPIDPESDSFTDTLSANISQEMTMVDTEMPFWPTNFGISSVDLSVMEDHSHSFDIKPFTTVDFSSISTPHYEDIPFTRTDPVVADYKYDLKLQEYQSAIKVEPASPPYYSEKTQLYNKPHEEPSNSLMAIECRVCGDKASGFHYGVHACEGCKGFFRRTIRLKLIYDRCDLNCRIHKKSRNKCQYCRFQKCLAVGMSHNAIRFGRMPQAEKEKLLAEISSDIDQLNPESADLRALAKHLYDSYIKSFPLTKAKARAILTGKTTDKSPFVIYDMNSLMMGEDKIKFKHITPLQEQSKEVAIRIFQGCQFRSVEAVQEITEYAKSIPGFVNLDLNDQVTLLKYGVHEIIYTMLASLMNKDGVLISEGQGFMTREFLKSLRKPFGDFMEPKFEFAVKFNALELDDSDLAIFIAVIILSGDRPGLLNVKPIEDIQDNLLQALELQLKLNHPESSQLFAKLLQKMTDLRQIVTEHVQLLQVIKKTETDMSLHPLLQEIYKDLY
# testName: ATG_PPARg_TRANS: Attagene TRANS-FACTORIAL HepG2 Assay for human Peroxisome Proliferator-activated Receptor-gamma (PPARg) (AID 2283007)
# Experimental: ATG_TRANS is a cell-based, multiplexed-readout assay that uses HepG2, a human liver cell line, with measurements taken at 24 hours after chemical dosing in a 24-well plate.ATG_PPARg_TRANS is one of 30 assay component(s) measured or calculated from the ATG_TRANS assay. […] This assay endpoint, ATG_PPARg_TRANS, was analyzed in the positive analysis fitting direction relative to DMSO as the negative control and baseline of activity. […]
Inconclusive results are not listed. Calls of active or inactive are those of the source. The calls were made as follows: active = hit-call score of the fitted dose curve at least 0.9, where 1 is the maximum; inconclusive = response in the unintended direction; inactive = score below 0.9.
Outcomes: 1.0 for active, 0.0 for inactive

> print(dat)
                                         mol                            measuredtarget  grouplabel
 1                CC#Cc1cc(C)nc(Nc2ccccc2)n1  Peroxisome proliferator-activated receptor gamma (Homo sapiens) (UniProt P37231)         1.0
 2                                  Nn1cnnc1  Peroxisome proliferator-activated receptor gamma (Homo sapiens) (UniProt P37231)         0.0
 3    CCOC(=O)C(O)(c1ccc(Cl)cc1)c1ccc(Cl)cc1  Peroxisome proliferator-activated receptor gamma (Homo sapiens) (UniProt P37231)         1.0
 4  O=C(NC(=O)c1c(F)cccc1F)Nc1cc(Cl)c(OC(F)(F)C(F)F)c(Cl)c1  Peroxisome proliferator-activated receptor gamma (Homo sapiens) (UniProt P37231)         0.0
 5                    O=NN(c1ccccc1)c1ccccc1  Peroxisome proliferator-activated receptor gamma (Homo sapiens) (UniProt P37231)         0.0
 6  C[C@]12CCC(=O)C=C1CC[C@@H]1[C@@H]2CC[C@@]2(C)[C@H]1CC[C@]2(C)O  Peroxisome proliferator-activated receptor gamma (Homo sapiens) (UniProt P37231)         0.0
 7      CCCCCCCCOC(=O)c1ccccc1C(=O)OCCCCCCCC  Peroxisome proliferator-activated receptor gamma (Homo sapiens) (UniProt P37231)         1.0
 8  CO/C=C(/C(=O)OC)c1ccccc1COc1cccc(C(F)(F)F)n1  Peroxisome proliferator-activated receptor gamma (Homo sapiens) (UniProt P37231)         1.0
 9   CC(c1ccc(O)cc1)(c1ccc(O)cc1)c1ccc(O)cc1  Peroxisome proliferator-activated receptor gamma (Homo sapiens) (UniProt P37231)         0.0
10  Cc1cc2c3c(c1)C(c1ccccc1)=N[C@@H](NC(=O)c1ccncc1)C(=O)N3CC2  Peroxisome proliferator-activated receptor gamma (Homo sapiens) (UniProt P37231)         1.0
11  Oc1ccc(C(c2ccc(O)cc2)(C(F)(F)F)C(F)(F)F)cc1  Peroxisome proliferator-activated receptor gamma (Homo sapiens) (UniProt P37231)         0.0
12   CCC(C)(CC)c1cc(NC(=O)c2c(OC)cccc2OC)on1  Peroxisome proliferator-activated receptor gamma (Homo sapiens) (UniProt P37231)         0.0

----------
# measuredTarget: Retinoic acid receptor RXR-alpha (Homo sapiens) (UniProt P19793)
# Sequence (P19793 whole entry, looked up): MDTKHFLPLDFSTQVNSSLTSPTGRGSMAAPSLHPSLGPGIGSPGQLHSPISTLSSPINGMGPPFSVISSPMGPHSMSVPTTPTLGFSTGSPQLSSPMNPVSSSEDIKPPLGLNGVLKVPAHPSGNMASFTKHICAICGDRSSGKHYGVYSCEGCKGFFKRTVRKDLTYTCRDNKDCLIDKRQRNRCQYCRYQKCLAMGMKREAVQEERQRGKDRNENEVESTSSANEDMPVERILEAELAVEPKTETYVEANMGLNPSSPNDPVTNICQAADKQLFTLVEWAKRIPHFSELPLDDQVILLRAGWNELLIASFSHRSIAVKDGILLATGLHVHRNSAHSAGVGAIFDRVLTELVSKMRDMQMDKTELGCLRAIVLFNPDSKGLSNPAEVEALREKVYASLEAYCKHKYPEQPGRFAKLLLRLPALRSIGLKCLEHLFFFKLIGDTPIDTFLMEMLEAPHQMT
# testName: ATG_RXRa_TRANS: Attagene TRANS-FACTORIAL HepG2 Assay for human Retinoid X Receptor alpha (RXRa) (AID 2283012)
Results filed as inconclusive are left out. Activity calls are given as the source filed them. The calls were made as follows: active = hit-call score of the fitted dose curve at least 0.9, where 1 is the maximum; inconclusive = response in the unintended direction; inactive = score below 0.9.
observable: outcome

> print(dat)
                           mol  experimentalresult
1   c1cc2ccc3cccc4ccc(c1)c2c34            inactive
2                     CN(C)CCO            inactive
3  Cc1cc(-c2ccc(N)c(C)c2)ccc1N            inactive

----------
# Read-out: Interleukin 6 Receptor (IL6R), IL6R (gene 3570)
# testName: LTEA_HepaRG_IL6R: Life Technologies and Expression Analysis (LTEA) Assay for Interleukin 6 Receptor (IL6R) using HepaRG (AID 2283510)
# details: mRNA level, 48 h; actives raise or lower the signal
The source made the active and inactive calls. The calls were made as follows: active = hit-call score of the fitted dose curve at least 0.9, where 1 is the maximum; inactive = score below 0.9.
Outcomes: True (active), False (inactive)

> print(dat)
                                         mol  grouplabel
 1               Oc1c(Cl)c(Cl)c(Cl)c(Cl)c1Cl        True
 2          CCCCCCOC(=O)c1ccccc1C(=O)OCCCCCC       False
 3  Cc1cc2c3c(c1)C(c1ccccc1)=N[C@@H](NC(=O)c1ccncc1)C(=O)N3CC2       False
 4                           Oc1ccc(Cl)cc1Cl       False
 5                       c1ccc(-c2ccccc2)cc1       False
 6                             COS(=O)(=O)OC       False
 7                           Cc1ccc(O)c(C)c1       False
 8                  CCOP(=S)(OCC)SCSC(C)(C)C       False
 9  O=C(NC(=O)c1cc(F)c(F)cc1Cl)Nc1cc(F)ccc1N1CCC(C(=O)O)CC1       False
10  NS(=O)(=O)C(F)(F)C(F)(F)C(F)(F)C(F)(F)C(F)(F)C(F)(F)C(F)(F)C(F)(F)F        True
11   O=S(=O)(O)C(F)(F)C(F)(F)C(F)(F)C(F)(F)F       False

----------
# Read-out: Plasminogen activator inhibitor-1 (PAI1), SERPINE1 (gene 5054)
# testName: BSK_CASM3C_PAI1: BioMAP Diversity Plus: CASM3C Assay for Plasminogen activator inhibitor-1 (PAI1) Biomarker Activity (AID 2284284);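 further: PAI-1 protein level measured by ELISA 24 h after dosing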
# details: primary human coronary artery smooth muscle cells
Calls of active or inactive are those of the source. How the source made its calls: active means hit-call score of the fitted dose curve at least 0.9, where 1 is the maximum; inactive means score below 0.9.
observable: outcome

> print(dat)
                                        mol  experimentalresult
1   O=S(=O)(O)C(F)(F)C(F)(F)C(F)(F)C(F)(F)F            inactive
2  O=C(O)C(F)(F)C(F)(F)C(F)(F)C(F)(F)C(F)(F)C(F)(F)C(F)(F)C(F)(F)F            inactive
3  NS(=O)(=O)C(F)(F)C(F)(F)C(F)(F)C(F)(F)C(F)(F)C(F)(F)C(F)(F)C(F)(F)F            inactive
4  O=C(O)C(F)(F)C(F)(F)C(F)(F)C(F)(F)C(F)(F)C(F)(F)C(F)(F)C(F)(F)C(F)(F)F            inactive

----------
# Read-out: ABC Transporter (ABCC3), ABCC3 (gene 8714)
# testName: LTEA_HepaRG_ABCC3: Life Technologies and Expression Analysis (LTEA) Assay for ABC Transporter (ABCC3) using HepaRG (AID 2283462)
# details: mRNA level, 48 h; actives raise or lower the signal
Activity calls are given as the source filed them. The calls were made as follows: active = hit-call score of the fitted dose curve at least 0.9, where 1 is the maximum; inactive = score below 0.9.
Outcomes: active, inactive

> print(dat)
                                         mol  grouplabel
 1                              CCCN(CCC)N=O    inactive
 2  N#Cc1ccc(N(CC(N)=O)CC(F)(F)F)cc1C(F)(F)F    inactive
 3                   Nc1ccc(-c2ccc(N)cc2)cc1    inactive
 4                            Clc1ccc(Cl)cc1    inactive
 5  O=C(O)C(F)(F)C(F)(F)C(F)(F)C(F)(F)C(F)(F)C(F)(F)C(F)(F)C(F)(F)C(F)(F)F      active
 6          CCCCCCOC(=O)c1ccccc1C(=O)OCCCCCC    inactive
 7  ClC1=C(Cl)[C@]2(Cl)[C@@H]3[C@H]4C[C@H]([C@@H]5O[C@H]45)[C@@H]3[C@@]1(Cl)C2(Cl)Cl    inactive
 8  CC1=C2C[C@H]3[C@@H](CC=C4C[C@@H](O)CC[C@@]43C)[C@@H]2CC[C@]12O[C@@H]1C[C@H](C)CN[C@H]1[C@H]2C    inactive
 9                                  Nn1cnnc1    inactive
10          CN(C)c1nc(=O)n(C2CCCCC2)c(=O)n1C    inactive
11                c1cc2ccc3cccc4ccc(c1)c2c34    inactive
